The values you see were collected from the Human Domainome abundance scans (Beltran et al. 2025).

B1: Zinc finger homeobox protein 3, residues 2147 to 2202; numbered along this chain, Q15911 (parent)
chain: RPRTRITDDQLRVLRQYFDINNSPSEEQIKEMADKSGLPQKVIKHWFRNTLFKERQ

# Variants of: B1
# assay: abundance fitness (aPCA) (normalised: wild type 0, dead -1); higher = more abundant; growth selection in yeast, the domain comes from the species named
# condition.summary: Homo sapiens
The entries below are paired with their reported abundance fitness.
measured.attribute: abundance fitness

>>> print(df.to_string())
    sequence_change  measured_attribute  assay_value
 0             D34M   abundance fitness       -0.097
 1              P2T   abundance fitness        0.279
 2              T4M   abundance fitness         0.13
 3             I43Y   abundance fitness        -1.08
 4             N21C   abundance fitness        -0.14
 5             P39F   abundance fitness       -0.746
 6             E54D   abundance fitness        0.046
 7             Q40E   abundance fitness        0.105
 8             I29T   abundance fitness       -0.109
 9             S25V   abundance fitness       -0.356
10              R5W   abundance fitness       -0.054
11             R55D   abundance fitness        0.114
12             F52P   abundance fitness       -0.059
13             I29G   abundance fitness       -0.827
14              P2V   abundance fitness        0.018
15             S36P   abundance fitness       -0.853
16             L14A   abundance fitness       -0.951
17             L51Q   abundance fitness        0.044
18             L38K   abundance fitness        -1.04
19             Y17V   abundance fitness       -0.153
20             F52S   abundance fitness       -0.029
21             A33P   abundance fitness       -0.908
22             E26W   abundance fitness       -0.265
23             R48E   abundance fitness        0.057
24             K53S   abundance fitness       -0.056
25             F52D   abundance fitness       -0.098
26             D19P   abundance fitness       -0.336
27             D19E   abundance fitness        0.022
28              D8M   abundance fitness       -0.096
29             E31G   abundance fitness       -0.316
30             R12G   abundance fitness       -0.067
31             H45K   abundance fitness        0.141
32             K35Q   abundance fitness        0.014
33             M32A   abundance fitness       -0.338
34             L38D   abundance fitness        -1.02
35              I6K   abundance fitness       -0.332
36             S36A   abundance fitness        0.045
37             E27M   abundance fitness       -0.039
38             L51C   abundance fitness       -0.088
39              T4V   abundance fitness        -0.13
40             I29K   abundance fitness       -0.634
41             K35C   abundance fitness       -0.382
42              T7N   abundance fitness       -0.204
43             S25E   abundance fitness       -0.111
44             K53N   abundance fitness       -0.041
45             N49I   abundance fitness       -0.236
46             V13P   abundance fitness       -0.587
47              R5T   abundance fitness        0.137
48             R48N   abundance fitness        0.102
49             K53I   abundance fitness       -0.124
50              D9C   abundance fitness        0.158
51             W46I   abundance fitness       -0.118
52             I29W   abundance fitness       -0.387
53             S36I   abundance fitness        0.078
54             Q16K   abundance fitness        0.092
55             N49R   abundance fitness         0.02
56             F18E   abundance fitness       -0.555
57              D9Y   abundance fitness       -0.148
58             E26R   abundance fitness       -0.093
59              R1A   abundance fitness       -0.652
60             Q40C   abundance fitness       -0.118
61             K30I   abundance fitness       -0.133
62             R15A   abundance fitness        -0.23
63             D34S   abundance fitness       -0.002
64             E26Y   abundance fitness        0.004
65             E54L   abundance fitness       -0.127
66             A33S   abundance fitness       -0.054
67             N49Q   abundance fitness       -0.075
68             R55Y   abundance fitness       -0.195
69             Q28C   abundance fitness       -0.423
70             I20G   abundance fitness       -0.045
71             K53Y   abundance fitness        0.141
72             L38Q   abundance fitness       -0.649
73             N49F   abundance fitness       -0.194
74              R1P   abundance fitness       -0.165
75             N49T   abundance fitness       -0.039
76             R55A   abundance fitness       -0.139
77              I6R   abundance fitness       -0.727
78             K35R   abundance fitness       -0.175
79             S25D   abundance fitness       -0.225
80             Q16T   abundance fitness       -0.012
81             N22M   abundance fitness        0.038
82             H45I   abundance fitness        -0.09
83             I29Q   abundance fitness       -0.225
84             M32T   abundance fitness       -0.584
85              T7I   abundance fitness       -0.596
86             K41W   abundance fitness       -0.361
87             W46Q   abundance fitness       -0.576
88             E31H   abundance fitness       -0.168
89             K30C   abundance fitness       -0.217
90             K30Q   abundance fitness       -0.323
